Quick reference for pKi among some compounds
measured on: Pancreatic alpha-amylase (Homo sapiens)
Sequence (P04746 whole entry): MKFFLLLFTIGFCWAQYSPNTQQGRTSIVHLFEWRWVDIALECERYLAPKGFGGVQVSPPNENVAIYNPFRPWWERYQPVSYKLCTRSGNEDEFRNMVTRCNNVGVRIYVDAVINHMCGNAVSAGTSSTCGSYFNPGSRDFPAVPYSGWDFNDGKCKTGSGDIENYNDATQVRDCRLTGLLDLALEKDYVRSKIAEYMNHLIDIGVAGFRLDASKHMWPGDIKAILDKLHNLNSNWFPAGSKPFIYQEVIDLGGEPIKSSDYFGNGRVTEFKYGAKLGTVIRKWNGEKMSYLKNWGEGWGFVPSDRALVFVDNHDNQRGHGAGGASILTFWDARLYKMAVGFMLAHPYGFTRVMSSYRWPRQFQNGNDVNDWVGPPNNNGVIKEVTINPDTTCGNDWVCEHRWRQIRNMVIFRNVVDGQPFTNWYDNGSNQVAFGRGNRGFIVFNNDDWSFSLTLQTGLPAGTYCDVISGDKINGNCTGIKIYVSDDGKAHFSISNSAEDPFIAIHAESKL
assay comment: Inhibition of human pancreatic alpha-amylase expressed in Pichia pastoris using amylase as substrate preincubated with substrate for 10 mins followed by protein addition measured every 5 mins by Dixon plot analysis
Reminder that pKi means the negative base-10 logarithm of the concentration expressed in mol/L.

- compound: "CC1OC(OC2C(CO)OC(OC3C(CO)OC(O)C(O)C3O)C(O)C2O)C(O)C(O)C1NC1C=C(CO)C(OC2OC(CO)C(OC3OC(CO)C(O)C(O)C3O)C(O)C2O)C(O)C1O (configuration not stated)"
  numeric result: 5.90

Attention now shifts to the item below.
Item: C[C@H]1O[C@H](O[C@H]2[C@H](O)[C@@H](O)[C@@H](O[C@H]3[C@H](O)[C@@H](O)[C@@H](O[C@H]4[C@H](O)[C@@H](O)[C@@H](O[C@H]5[C@H](O)[C@@H](O)[C@@H](O)O[C@@H]5CO)O[C@@H]4CO)O[C@@H]3CO)O[C@@H]2CO)[C@H](O)[C@@H](O)[C@@H]1N[C@H]1C=C(CO)[C@@H](O[C@H]2O[C@H](CO)[C@@H](O[C@H]3O[C@H](C)[C@@H](N[C@H]4C=C(CO)[C@@H](O)[C@H](O)[C@H]4O)[C@H](O)[C@H]3O)[C@H](O)[C@H]2O)[C@H](O)[C@H]1O Test system: Pancreatic alpha-amylase (Homo sapiens) Read-out: pKi Value: ? 7.83

----------
measured on: UniProtKB P00693
Sequence (P00693 whole entry): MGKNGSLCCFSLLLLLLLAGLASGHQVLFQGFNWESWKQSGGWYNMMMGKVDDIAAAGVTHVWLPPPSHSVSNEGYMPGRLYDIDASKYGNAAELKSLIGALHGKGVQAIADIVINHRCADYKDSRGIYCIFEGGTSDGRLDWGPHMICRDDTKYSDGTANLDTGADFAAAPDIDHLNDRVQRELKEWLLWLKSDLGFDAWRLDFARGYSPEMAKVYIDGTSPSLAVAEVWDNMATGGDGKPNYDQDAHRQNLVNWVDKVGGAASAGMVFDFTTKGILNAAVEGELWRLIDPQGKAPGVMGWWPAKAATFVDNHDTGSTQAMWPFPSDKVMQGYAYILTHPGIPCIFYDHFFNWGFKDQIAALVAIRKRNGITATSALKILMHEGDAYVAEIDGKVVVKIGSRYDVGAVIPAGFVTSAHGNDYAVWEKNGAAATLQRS
assay comment: Inhibition of recombinant barley alpha-amylase isozyme-1 using DP17 amylose as substrate preincubated for 5 mins followed by substrate addition by copper-bicinchoninate method
pKi: −log10 of the molar value.
measured parameter: pKi

Look at this compound and give its reported pKi. O=S(=O)(O)O[C@@H](CO)[C@@H](O)CN1C[C@@H](O)[C@H](O)[C@H]1CO > 2.00

----------
measured on: Alpha-amylase 1A (Homo sapiens)
assay comment: Potency index, ratio of BAS 04880564 IC50 to compound IC50 for human salivary alpha-amylase
measured parameter: Ratio IC50

Some compounds with recorded Ratio IC50:
- chemical smiles: "NS(=O)(=O)c1ccc(Nc2nc(-c3ccc(O)cc3O)cs2)cc1"
  Ratio IC50: 0.83
- chemical smiles: "O=C1S/C(=C\\c2cc(Cl)ccc2O)C(=O)N1Cc1cccc([N+](=O)[O-])c1"
  Ratio IC50: 2.76
- chemical smiles: "COc1cc(Br)cc(/C=C2/SC(Nc3cccc(C(=O)O)c3)=NC2=O)c1O"
  Ratio IC50: 0.53
- chemical smiles: "CC(=O)c1cccc(Nc2nc(-c3ccc(O)cc3O)cs2)c1"
  Ratio IC50: 1.38
- chemical smiles: "Nc1ccc(Nc2nc(-c3ccc(Cl)cc3Cl)cs2)cc1"
  Ratio IC50: 0.51

[a] CN(C)c1ccc(Nc2nc(-c3ccc(O)cc3O)cs2)cc1
[b] COc1ccc(Nc2nc(-c3ccccc3O)cs2)cc1
I'd appreciate it if you could identify which of a and b has the greater Ratio IC50. Give the chosen item's label as your response. b

----------
measured on: UniProt:P0DUB6
assay comment: Inhibition of human salivary alpha-amylase using GalG2CNP as substrate by UV-Vis spectrophotometric analysis
condition label: read-out: IC50
pIC50: −log10 of the molar value.
measured parameter: pIC50

Some molecules with recorded pIC50:
- molecule: "Nc1ccc(Nc2nc(-c3ccc(Cl)cc3Cl)cs2)cc1"
  measured on: "UniProt:P0DUB6"
  pIC50: 3.57
- molecule: "CC(=O)c1cccc(Nc2nc(-c3ccc(O)cc3O)cs2)c1"
  measured on: "UniProt:P0DUB6"
  pIC50: 4.00

[1] COc1cccc(NC(=N)Nc2nc(O)cc(CSc3ccccn3)n2)c1
[2] O=C1S/C(=C\c2cc(Cl)ccc2O)C(=O)N1Cc1cccc([N+](=O)[O-])c1
// compare measured pIC50 between 1 and 2 ; output the lower one Give the chosen item's label as your response. 1
(1: 3.48, 2: 4.30)

[1] O=C(O)c1cc(Nc2nc(-c3ccc(O)cc3O)cs2)ccc1O
[2] O=C(O)c1ccc(Nc2nc(-c3ccc(O)cc3O)cs2)cc1
I'd appreciate it if you could identify which of 1 and 2 has the greater pIC50. Give the chosen item's label as your response. 1

----------
measured on: Alpha amylase (Homo sapiens)
Sequence (P0DUB6 whole entry): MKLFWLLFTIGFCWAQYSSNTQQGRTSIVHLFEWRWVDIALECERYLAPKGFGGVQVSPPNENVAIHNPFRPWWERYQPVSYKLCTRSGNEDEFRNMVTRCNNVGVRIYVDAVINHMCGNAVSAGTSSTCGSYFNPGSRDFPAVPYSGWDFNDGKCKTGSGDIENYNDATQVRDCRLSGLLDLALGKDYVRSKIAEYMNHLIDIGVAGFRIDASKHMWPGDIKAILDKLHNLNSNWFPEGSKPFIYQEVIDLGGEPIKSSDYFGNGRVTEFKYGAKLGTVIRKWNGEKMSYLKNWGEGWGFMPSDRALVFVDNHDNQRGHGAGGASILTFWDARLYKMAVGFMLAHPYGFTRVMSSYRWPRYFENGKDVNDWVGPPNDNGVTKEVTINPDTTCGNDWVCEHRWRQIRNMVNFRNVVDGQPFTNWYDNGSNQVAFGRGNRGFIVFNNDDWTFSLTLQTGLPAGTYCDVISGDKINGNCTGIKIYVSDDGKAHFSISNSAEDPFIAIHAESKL
assay comment: Inhibition of alpha-amylase (unknown origin) relative to control
measured parameter: IC50

Some molecules with recorded IC50:
- molecule: "O=C(O)c1ccc(O)c(O)c1 [PROTOCATECHUIC ACID]"
  IC50: "> 10 mM"
- molecule: "COc1ccc(CCC(=O)O)cc1OC"
  IC50: "> 12 mM"
- molecule: "O=C(/C=C/c1ccc(O)c(O)c1)O[C@@H]1C[C@@](OC(=O)/C=C/c2ccc(O)c(O)c2)(C(=O)O)C[C@@H](O)[C@@H]1O [CYNARIN]"
  IC50: "> 2 mM"
- molecule: "O=C(O)CCc1ccc(O)c(O)c1 [DIHYDROCAFFEIC ACID]"
  IC50: "> 14 mM"
- molecule: "COc1cc(/C=C/C(=O)O)cc(OC)c1O [SINAPINATE]"
  IC50: "> 6.5 mM"

Look at this molecule and give its reported IC50. COc1cc(/C=C/C(=O)O)ccc1O [FERULATE] > 5 mM

Look at this molecule and give its reported IC50. O=C(O)c1cccc(O)c1O [2,3-DIHYDROXYBENZOIC ACID] > 7 mM

----------
measured on: Alpha-amylase 1A (Homo sapiens)
assay comment: Inhibition of human salivary alpha-amylase using GalG2CNP as substrate by UV-Vis spectrophotometric analysis
condition label: read-out: IC50
measured parameter: IC50 (µM)

Some compounds with recorded IC50:
- compound: "Cc1[nH]nc(-c2ccc(O)cc2O)c1Oc1ccc(C(=O)O)cc1"
  IC50 / µM: 4000
- compound: "Cc1ccc(O)c(Cc2cc(C)cc(Cc3cc(C)ccc3O)c2O)c1"
  IC50 / µM: 200
- compound: "CC(O)CNCCNCc1ccc(-c2ccccc2F)o1 (stereo not drawn)"
  IC50 / µM: 1000
- compound: "Oc1ccc(Nc2nc(-c3ccc(Cl)cc3)cs2)cc1"
  IC50 / µM: 1040
- compound: "O=C(O)c1ccc(Nc2nc(-c3ccc(O)cc3O)cs2)cc1O"
  IC50 / µM: 642

[P] Oc1ccc(Nc2nc(-c3ccc(O)cc3)cs2)cc1
[Q] COc1cc(Br)cc(/C=C2/SC(Nc3cccc(C(=O)O)c3)=NC2=O)c1O
[R] Cc1ccc(-c2csc(Nc3ccc(O)cc3)n2)cc1
[S] O=C(O)c1cccc(N2C(=O)/C(=C/c3ccccc3O)SC2=S)c1
Ascending sort, IC50. Give your ranking as a list of the labels in the requested order. S, Q, P, R

[I] CCc1cc(-c2n[nH]c(C(=O)O)c2-c2ccc3c(c2)OCO3)c(O)cc1O
[II] Oc1ccc(Nc2nc(-c3ccccc3)cs2)cc1
[III] C/C(=N\NC(=O)CCC(=O)Nc1ccccc1C)c1ccc(O)cc1O
[IV] COc1cccc(C2NC(c3cccc(OC)c3O)C([N+](=O)[O-])C(C)(C)C2[N+](=O)[O-])c1O (stereo not drawn)
[V] CN(C)c1ccc(Nc2nc(-c3ccc(O)cc3O)cs2)cc1
Ascending sort, IC50. Give your ranking as a list of the labels in the requested order. V, IV, III, II, I

[P] NS(=O)(=O)c1ccc(Nc2nc(-c3ccc(O)cc3O)cs2)cc1
[Q] COc1ccc(Nc2nc(-c3ccccc3O)cs2)cc1
[R] CC(=O)N1CCN(C2=NC(=O)/C(=C\c3ccccc3O)S2)CC1
Ascending sort, IC50. Give your ranking as a list of the labels in the requested order. Q, P, R
(Q: 40 µM, P: 165 µM, R: 700 µM)

// data source = ChEMBL document CHEMBL3616379
